system: T1, PD-L1 (Programmed Death-Ligand 1), recombinant, His-tagged (human, UniProt Q9NZQ7 18-134, limits assumed)
T1 construct: Immobilised on microtiter plates
T1 sequence (Q9NZQ7 18-134 limits assumed): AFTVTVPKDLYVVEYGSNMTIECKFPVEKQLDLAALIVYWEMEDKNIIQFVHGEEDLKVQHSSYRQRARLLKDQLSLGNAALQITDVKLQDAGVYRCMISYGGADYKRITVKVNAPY
method: plate binding assay with immobilised PD-L1
pKd: −log10 of the molar value. Starred links: 1 amine or outer side, 2 acyl side, 3 side chain; linkers in the order of their positions; H or OH if unused. Positions of bridges follow the written chain, without caps; N, C: chain ends. Non-standard residues stand in square brackets, D forms with d. No end group written: not given here. pCaaF = p-(2-chloroacetamido)-phenylalanine, O=C(CCl)Nc1ccc(C[C@H](N[*:1])C(=O)[*:2])cc1
measuredQuantity: pKd

binder | measuredQuantity | recordedNumber
DYKDDDDKGSGSTYLCGAISLA[pCaaF]KAQIKESLQQQQQQQQQQQQ-{Fc-H6} (Fc fusion, thioether 16-23, Spacer variant of cRK10-Tras-Fc (Q12); also called FLAG-(GS)2-TYLCGAISLAZKAQIKESL-(Q)12-(Fc)^1-H6) [FLAG-cRK10-Q12-Tras-Fc-His] | pKd | 6.63
DYKDDDDKGSGSTYLCGAISLA[pCaaF]KAQIKESLQQQQQQ-{Fc-H6} (Fc fusion, thioether 16-23, also called cRK10-Tras-Fc; RK10-Tras-Fc-His) [cRK10 (pCaaF)-Tras-Fc] | pKd | 7.38
TYLCGAISLA[pCaaF]KAQIKESL (thioether 4-11) [cyclic peptide cRK10 (pCaaF)] | pKd | 4.89

Every entry's value here was drawn from patent US20250197448A1.
